The measurements presented in this section are drawn from patent US12269800B2.

- Measurement Notes: Plasma Stability Assay of Example A3, human plasma
- Recorded Conditions: % of prodrug compound remaining, 37° C., 120 min
Parameter Human Plasma Prodrug (%): see the listing below.
The figure you give is taken to be in %; do not add the unit.

COc1ccc([C@@]23CCC(OC(=O)c4ccc(C(C)C)cc4)=C[C@@H]2N(C)CC3)cc1OC    78
COc1ccc([C@@]23CCC(OC(=O)C(C)(C)C)=C[C@@H]2N(C)CC3)cc1OC    3.6

Ask: What value of Human Plasma Prodrug (%) has been recorded for this entry: `COc1ccc([C@@]23CCC(OC(=O)c4c(C)cccc4C)=C[C@@H]2N(C)CC3)cc1OC`
Result: 81

Ask: Recorded Human Plasma Prodrug (%) for `COc1ccc([C@@]23CCC(OC(=O)c4cccc(C(C)(C)C)c4)=C[C@@H]2N(C)CC3)cc1OC` , please?
Result: 57
